The values you see were collected from the supplement of paper PMC6470124.

# measurementNotes: absolute recovery over mixed-bed multilayer solid-phase extraction; higher = better recovery
# conditionParameters: surface water; enrichment method: SPE
propertyName: absolute recovery (%)

* Nc1ccn(C2OC(CO)C(O)C2O)c(=O)n1 (stereo not given) [Cytarabin] | 112
* O=[N+]([O-])C(Br)(CO)CO [Bronopol] | 6.4
* CCCN(CCOc1c(Cl)cc(Cl)cc1Cl)C(=O)n1ccnc1 [Prochloraz] | 96.4
* CC1(C)SC(CNC(=O)C([NH3+])c2ccc(O)cc2)[NH2+]C1C(=O)[O-] (stereo not given) [Amoxicillin-EP-Impurity-E] | 12.2
* CC(C1CC1)C(O)(Cn1cncn1)c1ccc(Cl)cc1 (stereo not given) [Cyproconazol] | 88.2
* CN1CCN(C)C1=O [1-3-Dimethyl-2-imidazolidinon] | 29.7
* COc1nc(NC(C)C)nc(NC(C)C)n1 [Prometon F] | 95.5
* C[NH+](C)CCC=C1c2ccccc2CCc2ccccc21 [Amitriptyline E] | 106
* COCC(=O)N(c1c(C)cccc1C)C(C)C(=O)OC (stereo not given) [Metalaxyl] | 95.8
* CCCCCCCCCC[N+](C)(C)[O-] [NN-Dimethyldicylamin-N-oxid] | 110
* CS(=O)(=O)c1ccc(C(=O)[C-]2C(=O)CCCC2=O)c([N+](=O)[O-])c1 [Mesotrion] | 96.5
* Clc1ccccc1C(c1ccccc1)(c1ccccc1)n1ccnc1 [Clotrimazol] | 90.3
* COC(=O)C(C)N(C(=O)Cc1ccccc1)c1c(C)cccc1C (stereo not given) [Benalaxyl] | 93
* O=c1c(-c2ccc(O)cc2)coc2cc([O-])cc(O)c12 [Genistein] | 103
* CC(=O)N(C)c1ccc(N)cc1 [N-(4-Aminophenyl)-N-methyl-acetamid] | 65.4
* COP(=O)(OC)OC=C(Cl)Cl [Dichlorvos] | 47.3
* COc1cc2[nH+]c(N(C)CCCNC(=O)C3CCCO3)nc(N)c2cc1OC (stereo not given) [Alfuzosin] | 96.3
* CC(C)(C)C(O)(CCc1ccc(Cl)cc1)Cn1cncn1 (stereo not given) [Tebuconazol] | 94.7
* N#Cc1cc(I)c([O-])c(I)c1 [Ioxynil] | 102
* CC1CC2C3CCC4=CC(=O)C=CC4(C)C3(F)C(O)CC2(C)C1(O)C(=O)CO (stereo not given) [Dexamethason] | 86.2
